TEST_SYSTEM: CXCR4 receptor (human, UniProt P61073 1-352)
Sequence (P61073 whole entry): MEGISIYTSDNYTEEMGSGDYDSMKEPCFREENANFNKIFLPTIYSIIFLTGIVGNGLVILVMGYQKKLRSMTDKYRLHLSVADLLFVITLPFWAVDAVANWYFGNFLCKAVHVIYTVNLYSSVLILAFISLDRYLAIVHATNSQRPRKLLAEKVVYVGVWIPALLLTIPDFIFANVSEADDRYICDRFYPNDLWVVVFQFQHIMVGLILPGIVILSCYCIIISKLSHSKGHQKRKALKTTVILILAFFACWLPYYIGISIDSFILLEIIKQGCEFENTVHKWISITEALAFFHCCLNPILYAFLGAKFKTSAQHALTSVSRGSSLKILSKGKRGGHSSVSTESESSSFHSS
METHOD_SUMMARY: cell-based or functional assay
Square brackets hold non-standard residues; d marks the D form. * marks the point of attachment. Palmitoyl = CCCCCCCCCCCCCCCC(=O)*
OUTCOME_MEASURE: IC50 (nM), calcium flux, CCRF-CEM
The answer is to be given in nM; state only the numeric part.

Ask | Supply reported IC50 (nM), calcium flux, CCRF-CEM belonging to this binder: Palmitoyl-MGYQKKLRSMTDKY[dR]L-NH2 [CXCR4 i1 loop compound 160]
Reply | 5730

Ask | Give recorded IC50 (nM), calcium flux, CCRF-CEM. Palmitoyl-MGYQKKLRSMTD[dK]YRL-NH2 [CXCR4 i1 loop compound 162]
Reply | 291

Ask | Please indicate IC50 (nM), calcium flux, CCRF-CEM recorded for Palmitoyl-MGYQKK[dL]RSMTDKYRL-NH2 [CXCR4 i1 loop compound 170]
Reply | 72

Ask | Give the measured IC50 (nM), calcium flux, CCRF-CEM for Palmitoyl-MGYQKKLR[dS]MTDKYRL-NH2 [CXCR4 i1 loop compound 172]
Reply | 90

Ask | Fill in reported IC50 (nM), calcium flux, CCRF-CEM for this entry: Palmitoyl-MGYQKKARSMTDKYRL-NH2 (SMILES CCCCCCCCCCCCCCCC(=O)N[C@@H](CCSC)C(=O)NCC(=O)N[C@@H](Cc1ccc(O)cc1)C(=O)N[C@@H](CCC(N)=O)C(=O)N[C@@H](CCCCN)C(=O)N[C@@H](CCCCN)C(=O)N[C@@H](C)C(=O)N[C@@H](CCCNC(=N)N)C(=O)N[C@@H](CO)C(=O)N[C@@H](CCSC)C(=O)N[C@H](C(=O)N[C@@H](CC(=O)O)C(=O)N[C@@H](CCCCN)C(=O)N[C@@H](Cc1ccc(O)cc1)C(=O)N[C@@H](CCCNC(=N)N)C(=O)N[C@@H](CC(C)C)C(N)=O)[C@@H](C)O) [CXCR4 i1 loop compound 135]
Reply | 175

Ask | Report measured IC50 (nM), calcium flux, CCRF-CEM; entry is Palmitoyl-MGYQKKL[dR]SMTDKYRL-NH2 [CXCR4 i1 loop compound 171]
Reply | 72

Ask | Answer with reported IC50 (nM), calcium flux, CCRF-CEM of Palmitoyl-MGYQKKLRAMTDKYRL-NH2 (SMILES CCCCCCCCCCCCCCCC(=O)N[C@@H](CCSC)C(=O)NCC(=O)N[C@@H](Cc1ccc(O)cc1)C(=O)N[C@@H](CCC(N)=O)C(=O)N[C@@H](CCCCN)C(=O)N[C@@H](CCCCN)C(=O)N[C@@H](CC(C)C)C(=O)N[C@@H](CCCNC(=N)N)C(=O)N[C@@H](C)C(=O)N[C@@H](CCSC)C(=O)N[C@H](C(=O)N[C@@H](CC(=O)O)C(=O)N[C@@H](CCCCN)C(=O)N[C@@H](Cc1ccc(O)cc1)C(=O)N[C@@H](CCCNC(=N)N)C(=O)N[C@@H](CC(C)C)C(N)=O)[C@@H](C)O) [CXCR4 i1 loop compound 146]
Reply | 170

Ask | Answer with the recorded IC50 (nM), calcium flux, CCRF-CEM for the binder listed here: Palmitoyl-MGYQKKLRS[dM]TDKYRL-NH2 [CXCR4 i1 loop compound 173]
Reply | 97

Ask | Return value of IC50 (nM), calcium flux, CCRF-CEM for input Palmitoyl-[dM]GYQKKLRSMTDKYRL-NH2 [CXCR4 i1 loop compound 165] , no commentary.
Reply | 112

Ask | Find the measured IC50 (nM), calcium flux, CCRF-CEM of Palmitoyl-MGYQK[dK]LRSMTDKYRL-NH2 [CXCR4 i1 loop compound 169] and report it.
Reply | 88
